biological target: α-Glucosidase type 1 from baker's yeast (Saccharomyces cerevisiae); construct: purchased Sigma Aldrich (Pty) Ltd. G5003; assay: biochemical; conditions: IC50 α-Glucosidase, mean ± SD, triplicate; tested at 1, 5, 10, 25, 50 µM
Sequence (P53341 whole entry): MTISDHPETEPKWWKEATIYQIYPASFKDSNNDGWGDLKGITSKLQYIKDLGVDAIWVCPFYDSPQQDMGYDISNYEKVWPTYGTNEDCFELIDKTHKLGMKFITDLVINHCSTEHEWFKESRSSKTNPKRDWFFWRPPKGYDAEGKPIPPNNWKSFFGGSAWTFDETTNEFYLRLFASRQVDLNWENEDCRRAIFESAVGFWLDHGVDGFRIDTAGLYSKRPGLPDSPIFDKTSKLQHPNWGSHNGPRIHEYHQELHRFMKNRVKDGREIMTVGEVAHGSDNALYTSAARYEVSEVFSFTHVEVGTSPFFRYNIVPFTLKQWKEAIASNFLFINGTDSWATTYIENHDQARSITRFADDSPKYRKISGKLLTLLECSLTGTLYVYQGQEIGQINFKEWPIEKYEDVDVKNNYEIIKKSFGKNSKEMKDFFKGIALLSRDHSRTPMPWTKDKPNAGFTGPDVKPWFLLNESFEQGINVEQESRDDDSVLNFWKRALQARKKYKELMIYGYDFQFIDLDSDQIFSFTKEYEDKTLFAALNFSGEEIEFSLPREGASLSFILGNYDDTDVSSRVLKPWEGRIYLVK
Give measured IC50 for each item. Keep answers brief.
Numbers only, in µM.

CC1=[N+]([O-])C(c2ccc(F)cc2)Nc2ccc(I)cc21 (stereo not shown) ... 9.27
CC1=[N+]([O-])C(c2ccc(F)cc2)Nc2ccc(Br)cc21 (stereo not shown) ... 7.47
CC1=[N+]([O-])C(c2ccccc2)Nc2c(I)cc(Br)cc21 (stereo not shown) ... 1.01
CC1=[N+]([O-])C(c2ccc(Cl)cc2)Nc2c(Br)cc(I)cc21 (stereo not shown) ... 7.07

# return IC50 for each item in the list
1. CC1=[N+]([O-])C(c2ccccc2)Nc2c(Br)cc(I)cc21 (stereo not shown)
2. CC1=[N+]([O-])C(c2ccccc2)Nc2ccc(Br)cc21 (stereo not shown)

9.14
1.08

Fill in: IC50 of COc1ccc(C2Nc3c(Br)cc(I)cc3C(C)=[N+]2[O-])cc1 (stereo not shown) is ___
0.78

* * *

test system: breast cancer (MCF-7) cell line; assay: MTT cytotoxicity assay, MCF-7; details: Conc. 50 (µM per method); Table S2
Parameter Measured: Cell viability percentage, MCF-7

// known answers, use as guide
CC1=[N+]([O-])C(c2ccccc2)Nc2ccc(I)cc21 (stereo not shown) ... 17,2488%
COc1ccc(C2Nc3ccc(Br)cc3C(C)=[N+]2[O-])cc1 (stereo not shown) ... 38,6394%
CC1=[N+]([O-])C(c2ccccc2)Nc2ccc(Br)cc21 (stereo not shown) ... 19,6607%

Okay, next one:
Entry COc1ccc(C2Nc3ccc(I)cc3C(C)=[N+]2[O-])cc1 (stereo not shown) has what Cell viability percentage, MCF-7?
37,5083%

* * *

test: DPPH radical scavenging assay; conditions: mean ± SD; 45 min in the dark; 512 nm
Parameter Measured: pIC50
Answers are plain numbers, as −log10 of the molar value.

Use the examples below as a reference point.
COc1ccc(C2Nc3ccc(Br)cc3C(C)=[N+]2[O-])cc1 (centres unmarked) ... 5.02
CC1=[N+]([O-])C(c2ccc(Cl)cc2)Nc2c(I)cc(Br)cc21 (centres unmarked) ... 5.39
CC1=[N+]([O-])C(c2ccccc2)Nc2ccc(Br)cc21 (centres unmarked) ... 5.32
CC1=[N+]([O-])C(c2ccc(Cl)cc2)Nc2ccc(I)cc21 (racemic) ... 4.57

# query: pIC50 of entry O=C1O[C@H]([C@@H](O)CO)C(O)=C1O [Ascorbic acid, ascorbic acid, reference compound]
5.30
